This section presents binders with their documented MC4R cAMP EC50 values.
- tgt: human melanocortin 4 receptor (human, UniProt P32245 1-332)
- Sequence (P32245 whole entry): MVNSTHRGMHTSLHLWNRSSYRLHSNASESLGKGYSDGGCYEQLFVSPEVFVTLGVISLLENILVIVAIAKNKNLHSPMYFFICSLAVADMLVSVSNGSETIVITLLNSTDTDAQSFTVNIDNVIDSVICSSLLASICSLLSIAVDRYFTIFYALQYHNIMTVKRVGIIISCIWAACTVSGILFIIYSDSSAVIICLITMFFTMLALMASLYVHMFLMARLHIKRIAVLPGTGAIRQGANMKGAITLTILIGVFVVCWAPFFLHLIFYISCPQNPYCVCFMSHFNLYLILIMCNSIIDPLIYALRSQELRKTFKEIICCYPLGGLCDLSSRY
- run-description: cell-based or functional assay
Positions of bridges follow the written chain, without caps; N, C: chain ends. Non-standard residues stand in square brackets, D forms with d. Hyp = O=C(O)[C@@H]1C[C@@H](O)CN1; Orn = NCCC[C@H](N)C(=O)O; Thz = O=C(O)[C@@H]1CSCN1; Sar = CNCC(=O)O
attribute-measured: MC4R cAMP EC50 (nM)

INSERT INTO assay_data (binder, unit_abbreviation, observed_value) VALUES
  ('cyclo(C[Sar]H[dF]HWCAKKKW) (disulfide 1-7; SMILES C[C@@H]1NC(=O)[C@@H]2CSSC[C@H](NC(=O)[C@H](Cc3c[nH]c4ccccc34)NC(=O)[C@H](CCCCN)NC(=O)[C@H](CCCCN)NC(=O)[C@H](CCCCN)NC1=O)C(=O)N(C)CC(=O)N[C@@H](Cc1c[nH]cn1)C(=O)N[C@H](Cc1ccccc1)C(=O)N[C@@H](Cc1c[nH]cn1)C(=O)N[C@@H](Cc1c[nH]c3ccccc13)C(=O)N2, also called c[c[Cys-Sar-His-D-Phe-His-Trp-Cys]-Ala-Lys-Lys-Lys-Trp]) [Chem. 73]', 'nM', 1.26),
  ('cyclo(C[Thz]H[dF]HWCK[Orn]AAW) (disulfide 1-7; SMILES C[C@@H]1NC(=O)[C@H](C)NC(=O)[C@H](CCCN)NC(=O)[C@H](CCCCN)NC(=O)[C@@H]2CSSC[C@H](NC(=O)[C@H](Cc3c[nH]c4ccccc34)NC1=O)C(=O)N1CSC[C@H]1C(=O)N[C@@H](Cc1c[nH]cn1)C(=O)N[C@H](Cc1ccccc1)C(=O)N[C@@H](Cc1c[nH]cn1)C(=O)N[C@@H](Cc1c[nH]c3ccccc13)C(=O)N2) [Chem. 115]', 'nM', 0.1),
  ('cyclo(C[Thz]H[dF]HWCKA[dK]AW) (disulfide 1-7; SMILES C[C@@H]1NC(=O)[C@H](CCCCN)NC(=O)[C@@H]2CSSC[C@H](NC(=O)[C@H](Cc3c[nH]c4ccccc34)NC(=O)[C@H](C)NC(=O)[C@@H](CCCCN)NC1=O)C(=O)N1CSC[C@H]1C(=O)N[C@@H](Cc1c[nH]cn1)C(=O)N[C@H](Cc1ccccc1)C(=O)N[C@@H](Cc1c[nH]cn1)C(=O)N[C@@H](Cc1c[nH]c3ccccc13)C(=O)N2) [Chem. 114]', 'nM', 0.04),
  ('cyclo(C[Thz]H[dF]HWCAAKAW) (disulfide 1-7; SMILES C[C@@H]1NC(=O)[C@H](C)NC(=O)[C@@H]2CSSC[C@H](NC(=O)[C@H](Cc3c[nH]c4ccccc34)NC(=O)[C@H](C)NC(=O)[C@H](CCCCN)NC1=O)C(=O)N1CSC[C@H]1C(=O)N[C@@H](Cc1c[nH]cn1)C(=O)N[C@H](Cc1ccccc1)C(=O)N[C@@H](Cc1c[nH]cn1)C(=O)N[C@@H](Cc1c[nH]c3ccccc13)C(=O)N2, also called c[c[Cys-THAZ-His-D-Phe-His-Trp-Cys]-Ala-Ala-Lys-Ala-Trp]) [Chem. 109]', 'nM', 0.15),
  ('cyclo(C[Thz]H[dF]HWCKR) (disulfide 1-7; SMILES N=C(N)NCCC[C@@H]1NC(=O)[C@H](CCCCN)NC(=O)[C@@H]2CSSC[C@H](NC1=O)C(=O)N1CSC[C@H]1C(=O)N[C@@H](Cc1c[nH]cn1)C(=O)N[C@H](Cc1ccccc1)C(=O)N[C@@H](Cc1c[nH]cn1)C(=O)N[C@@H](Cc1c[nH]c3ccccc13)C(=O)N2) [Chem. 118]', 'nM', 3.53),
  ('cyclo(C[Hyp]H[dF]RWC[Hyp]H[dF]RW) (disulfide 1-7; SMILES N=C(N)NCCC[C@@H]1NC(=O)[C@@H](Cc2ccccc2)NC(=O)[C@H](Cc2c[nH]cn2)NC(=O)[C@@H]2C[C@@H](O)CN2C(=O)[C@@H]2CSSC[C@H](NC(=O)[C@H](Cc3c[nH]c4ccccc34)NC1=O)C(=O)N1C[C@H](O)C[C@H]1C(=O)N[C@@H](Cc1c[nH]cn1)C(=O)N[C@H](Cc1ccccc1)C(=O)N[C@@H](CCCNC(=N)N)C(=O)N[C@@H](Cc1c[nH]c3ccccc13)C(=O)N2, also called c[c[Cys-Hyp-His-D-Phe-Arg-Trp-Cys]-Hyp-His-D-Phe-Arg-Trp]) [Chem. 32]', 'nM', 0.12),
  ('CXHFRWCXHFRW (βAla 2, 8; D-Phe 4, 10; disulphide Cys1-Cys7; head-to-tail amide Cys1-Trp12, also called c[c[Cys-βAla-His-D-Phe-Arg-Trp-Cys]-βAla-His-D-Phe-Arg-Trp]) [Chem. 25]', 'nM', 0.02),
  ('cyclo(C[Sar]H[dF]RWC[Sar]H[dF]RW) (disulfide 1-7; SMILES CN1CC(=O)N[C@@H](Cc2c[nH]cn2)C(=O)N[C@H](Cc2ccccc2)C(=O)N[C@@H](CCCNC(=N)N)C(=O)N[C@@H](Cc2c[nH]c3ccccc23)C(=O)N[C@H]2CSSC[C@H](NC(=O)[C@H](Cc3c[nH]c4ccccc34)NC(=O)[C@H](CCCNC(=N)N)NC(=O)[C@@H](Cc3ccccc3)NC(=O)[C@H](Cc3c[nH]cn3)NC(=O)CN(C)C2=O)C1=O, also called c[c[Cys-Sar-His-D-Phe-Arg-Trp-Cys]-Sar-His-D-Phe-Arg-Trp]) [Chem. 31]', 'nM', 0.29),
  ('cyclo(CH[dF]RWCH[dF]RW) (disulfide 1-6; SMILES N=C(N)NCCC[C@@H]1NC(=O)[C@@H](Cc2ccccc2)NC(=O)[C@H](Cc2c[nH]cn2)NC(=O)[C@@H]2CSSC[C@H](NC(=O)[C@H](Cc3c[nH]c4ccccc34)NC1=O)C(=O)N[C@@H](Cc1c[nH]cn1)C(=O)N[C@H](Cc1ccccc1)C(=O)N[C@@H](CCCNC(=N)N)C(=O)N[C@@H](Cc1c[nH]c3ccccc13)C(=O)N2, also called c[c[Cys-His-D-Phe-Arg-Trp-Cys]-His-D-Phe-Arg-Trp]) [Chem. 49]', 'nM', 1.28);
